These records show GI50 for MDA-MB-435.

Below, each entry is followed by its recorded GI50 result.
INSERT INTO results (compound, quantity_kind, experimental_value) VALUES
  ('CC/C(=N\Nc1nc2ccccc2n1C)c1ccccn1', 'GI50', '224 nM'),
  ('Cc1ccc(/C=C(\C#N)n2nnc3cc(Cl)c(Cl)cc32)cc1', 'GI50', '909 nM'),
  ('COC(=O)[C@]12CC[C@@H](C)[C@H](C)[C@@H]1C1=CC[C@@H]3[C@@]4(C)C[C@@H](OC(=O)c5ccco5)[C@H](O)[C@@](C)(CO)[C@@H]4[C@H](O)C[C@@]3(C)[C@]1(C)CC2', 'GI50', '2290 nM'),
  ('COC1=C(OC)C(=O)C(/C=C(\C)C(=O)O)=C(C)C1=O', 'GI50', '> 100000 nM'),
  ('CN(C)CC(C(=O)c1ccccc1)c1ccccc1 (stereo unspecified)', 'GI50', '1900 nM');

Let us examine a further case.
Ask: Give the measured GI50 of CCN(CC)CCN1C(=O)c2cccc3c(-c4ccc5c(c4)ncn5C4CCCCC4)ccc(c23)C1=O .
Reply: 1680 nM

----------
- System: A549 NSCLC
- Protocol notes: NCI tumour cell line growth inhibition, 48 h
Quantity kind: TGI

Previously resolved entries follow.
INSERT INTO assay_data (molecule, study_system, experimental_value) VALUES
  ('COc1ccc2nc(-c3ccc(OC(=O)N(C)C)cc3)cn2c1', 'A549 NSCLC', '> 100 µM'),
  ('C=C1C(=O)OC2/C=C(\C)CC/C=C(/C)CC(OC(=O)/C(=C/CO)CO)C12 (stereo not drawn)', 'A549 NSCLC', '> 100 µM'),
  ('O=C(CC(=O)N1N=C(n2ccc3ccccc32)CC1c1ccccc1)Nc1cccc(Cl)c1 (stereo not drawn)', 'A549 NSCLC', '> 100 µM'),
  ('COc1cc2c(cc1C)NC(=O)/C2=C/c1c(Cl)[nH]c2cc(C)c(OC)cc12', 'A549 NSCLC', '28.7 µM'),
  ('C=C1c2nc3ccccc3n2C=C(c2ccc(Cl)cc2)N1c1ccc(OCCN2CCOCC2)cc1', 'A549 NSCLC', '> 100 µM');

Ask: // TGI lookup, key: CCOC(=O)/C(C(=S)NC)=C(/N)N1CCCC1
Reply: > 100 µM

Ask: Then this molecule: NC(CCCCCP(=O)(O)O)C(=O)O (stereo not drawn)
Reply: > 100 µM

Ask: Another molecule to check: O=C(CCCn1c2c(sc3ncccc32)c(=O)n2nnc(-c3ccccc3)c12)NCCc1cnc[nH]1
Reply: 34.7 µM

Ask: Lookup COc1ccc2c(=O)c([Se]c3coc4cc(OC)ccc4c3=O)coc2c1
Reply: > 100 µM

Ask: Another molecule to check: CCN(CC)CC(O)c1ccc2ccc3ccccc3c2c1 (stereo not drawn)
Reply: 31.4 µM

Ask: Now this one: Nc1ccc2c(c1)C(=O)c1ccc(F)cc1-2
Reply: > 100 µM

Ask: What do we get for NCCCNCCSSCc1ccccc1CSSCCNCCCN ?
Reply: > 100 µM

Ask: CCOP(=O)(CCP(=O)(OCC)OCC)OCC.C[CH2][Sn]([Cl])([Cl])[CH2]C , same question.
Reply: > 100 µM

Ask: Follow-up item: COC1/C=C\C=C(/C)C(=O)NC2=CC(=O)C=C(C2=O)C(OC)C(C)CC(OC)C(OC)C(C)/C=C(/C)C1OC(N)=O (stereo not drawn)
Reply: 32.4 µM
